Tested on: PPARg DBDmut IVT, anti-PPARg (DBD mutation: PPARg1 K132A/R137A, NR concentration 270 nM)
procedure-summary: PBM binding z-score (relative to random genomic background probes); higher = stronger binding; sequences stand for … in GC…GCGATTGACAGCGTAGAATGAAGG
As shown below, each of these sequences has a reported PBM binding z-score value.
// no unit, no text: just the number

GCGACTGGGGCATCAGCAGGTTACGATAACTTAA :: -0.712
TCATAGAGGTAAACAGGTGAAAGTCCGTAAGTTA :: 0.0732
ATCTCTAGGTAACAAGTTCAGTGAGAGAGAGGAC :: 1.5
CGTCCAAGGTCCGCAGGTCAGTGAAAGCGACGTG :: -1.27
TCATATAGGTAAATGCTAGTTGAAAGTCCGATCT :: 1.1

# query: PBM binding z-score of entry "CCTCGGAGGACAGAAGATCAGAGCTGTCCGCTTT"
-1.48

# query: PBM binding z-score of entry "ACTAATAGTTGAGACGAGGGCAACCGATAGGTTG"
0.434

# query: PBM binding z-score of entry "CGAACTAGGTGATCCAGGACAGTGAATACATTGA"
0.847

# query: PBM binding z-score of entry "ACTAGCAGGCCAAGGGTCAATCAAGATTAGTCCG"
-0.4

# query: PBM binding z-score of entry "CGTCCAAGGTCATAGGAGGTCAGTGAGGACAGAT"
0.649

====

Test system: LXRa homodimer (NR concentration 270 nM)
procedure-summary: PBM binding z-score (relative to random genomic background probes); higher = stronger binding; sequences stand for … in GC…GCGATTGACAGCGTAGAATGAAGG
As shown below, each of these sequences has a reported PBM binding z-score value.
// no unit, no text: just the number

Examples from the recorded data:
CCTACTGGGCCAAAAAGGTCATTGAGGCCGATAA :: 2.98
CCTCGGAGGACAGTAGGTCAGAGCTGTCCGCTTT :: -0.0267
TGAATGACGTTATAAGATCAGGGAACGTTGCAAA :: -0.351
GCGACTGGGGCAAAGCAGGTTACCACAAGGTTGG :: -0.447
ATCGAAAGATCGACGAGGTGAGTATACACCGTTT :: -0.368

Now for another entry.
# query: PBM binding z-score of entry "TCATATAGGTAAATGCTAAGTGAAAGTCCGATCT"
0.284

====

Tested on: RARb homodimer (NR concentration 270 nM)
procedure-summary: PBM binding z-score (relative to random genomic background probes); higher = stronger binding; sequences stand for … in GC…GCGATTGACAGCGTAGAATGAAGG
Decision: PBM binding z-score compared against 3; not below it gives satisfied, below it gives not satisfied.

Completed entries (count: 2):
CGAACTAAGTCAAGGACAGTGAATCTCCGCACGC :: not satisfied
GATAGCAGGCCATTTGGGTCACTCAATGACGGGC :: not satisfied

Check this sequence for PBM binding z-score at or above 3: "ACTTACGGGTTAACGAGGTTATAGCACGCGTATA"
not satisfied

Check this sequence for PBM binding z-score at or above 3: "TCTGCTAGGTCAGTTGGTCAGGTAACGAGCTGCC"
not satisfied

Check this sequence for PBM binding z-score at or above 3: "AGTCAAAGTTCACTAAGTAACGTAAGATTCAGCT"
satisfied

Check this sequence for PBM binding z-score at or above 3: "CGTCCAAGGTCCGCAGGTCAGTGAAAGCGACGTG"
not satisfied

====

As shown below, each of these sequences has a reported PBM binding z-score value.
Test system: LXRb:RXRa (NR concentration 270 nM, RXRa partner concentration 90 nM)
procedure-summary: PBM binding z-score (relative to random genomic background probes); higher = stronger binding; sequences stand for … in GC…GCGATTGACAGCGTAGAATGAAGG

Examples from the recorded data:
CGTCCAAGGTCATAGAAGGTCAGTGAAGACAGAT :: 5.81
TCGAGTAGGTTAGTCGGGCCATTCAGCCAACATA :: -0.437

# query: PBM binding z-score of entry "ACTTACGGATCAACGAGGTTATAGCACGCGTATA"
1.25

# query: PBM binding z-score of entry "CCTTACGGGTCACTGTCAGGTTATAGCATTTGGA"
3.23

# query: PBM binding z-score of entry "TCTTGTAGATCAAGCAGGTTAAGAACGCCTGAGT"
0.534

====

As shown below, each of these sequences has a reported PBM binding z-score value.
Test system: RARa homodimer (NR concentration 270 nM)
procedure-summary: PBM binding z-score (relative to random genomic background probes); higher = stronger binding; sequences stand for … in GC…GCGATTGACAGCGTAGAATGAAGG
// no unit, no text: just the number

Tell me reported PBM binding z-score for "TTATCAAGGTGAGCTGAGGTCGTTGATCCAACTC" , tested with RARa homodimer (NR concentration 270 nM).
-0.272

Tell me reported PBM binding z-score for "TCTAGCAGGCCCGAGGGTCACTCAAGAGGTACGG" , tested with RARa homodimer (NR concentration 270 nM).
-0.992

Tell me reported PBM binding z-score for "CGTCAAAGTTCAACTAAGGTAAGGTAAAGCACGC" , tested with RARa homodimer (NR concentration 270 nM).
1.63

Tell me reported PBM binding z-score for "CCTTACGGGTCAAGGTTATAGCGCGGGTGGTACG" , tested with RARa homodimer (NR concentration 270 nM).
0.367

Tell me reported PBM binding z-score for "CCGACTGGGGGAGAAAGGTTACCATACCATCCGG" , tested with RARa homodimer (NR concentration 270 nM).
0.727

Tell me reported PBM binding z-score for "TTGCCAAGGTGAAGGTCGTTGATCCCTCTGTAGA" , tested with RARa homodimer (NR concentration 270 nM).
-0.87

====

Test system: VDR homodimer (NR concentration 270 nM)
procedure-summary: PBM binding z-score (relative to random genomic background probes); higher = stronger binding; sequences stand for … in GC…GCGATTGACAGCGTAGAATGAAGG
Decision: PBM binding z-score compared against 1; not below it gives class 1, below it gives class 0.

CTTCGGAGGACAACAGGAGGTCAGAGCTGCCAGA :: class 1
CCCGAAAGGTCGGTTGAGGTGAGTATACGGATAA :: class 0
AGAACGAGGGCACGCTGAGTTGGTAGCAGAGTAG :: class 0
CGTCAAAGTTCAAGGTAACGGAACAGAAAGCAGC :: class 1
TCATATAGGTAAATGGTAGGTGAAAGTCCGATCT :: class 1
AGTCAAAGTTCATCTAGCTAACGTAAGATATGCT :: class 1
TATACAGGGTCAATGGCCAGAGTACGAATGTCGA :: class 1
ATCTCTAGGAAACAAGTTCAGTGAAAGAGAGGAC :: class 1
AGTATGAGGTTACCAAAGATCAGGGAAACGCTTG :: class 0
TCTATTAGTTGAAGTGCAACCGACGAGTCCGTTT :: class 1

Check this sequence for PBM binding z-score at or above 1: "CCTACTGGGACAAGGTCATTGATCAGTCAAAGCA"
class 1

Check this sequence for PBM binding z-score at or above 1: "TTACCAAGGTGAAGGTCCTTGATCCCTCTGTAGA"
class 0

====

As shown below, each of these sequences has a reported PBM binding z-score value.
System: PPARg:RXRa IVT, anti-PPARg (NR concentration 270 nM, RXRa partner concentration 90 nM)
procedure-summary: PBM binding z-score (relative to random genomic background probes); higher = stronger binding; sequences stand for … in GC…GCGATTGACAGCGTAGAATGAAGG
// no unit, no text: just the number

Examples from the recorded data:
ATTCCAAGGTGATCGTGAGGTCGTTGATACTAAC :: 1.47
TCATATAGGTAAATGCTAGGTGAAAGTGCGATCT :: 3.13
CCGACTCGGGCAAAGGTTACCATACTCAGTACGA :: 4.06
CGAACTGGGTCATTGACAGGACAGTGAATAGTAA :: 7.88
CCTACTGCGCCAAGGTCATTGATCAGTCAAAGCA :: 0.978

# query: PBM binding z-score of entry "ATCGCTAGGTAACAAGTTCAGTGAAAGAGAGGAC"
0.674

# query: PBM binding z-score of entry "ATCTCTAGGTCAAGATAGTTCAGTGAATGCAAAT"
6.47

# query: PBM binding z-score of entry "CCTACTGGGCCATTCAGAGGTGATTGATCATATG"
3.8

# query: PBM binding z-score of entry "AGTAAAAGTTCAGGACGAGGTAACGTAAAGCACG"
0.814

# query: PBM binding z-score of entry "CAAACTAGGTCACCGGAAGGTCAACGTCCGCATG"
8.78

# query: PBM binding z-score of entry "ACAGACAGGTGATCAAGGTAACTCAGGCTATCAT"
0.406

# query: PBM binding z-score of entry "ATCTCTAGGTAAAGTTCACTGAAAGATCGATAGA"
3.28
